meta.source: PubChem BioAssay (NCI)

- assayComment: NCI Yeast Anticancer Drug Screen. Data for the rad50 strain (AID 155);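 further: 0% = growth of vehicle-only cultures of the same strain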
- experimentalSetup: S. cerevisiae rad50 strain growth inhibition; at 33.0 µM
About 79,000 compounds went through this panel and 15% of them were active in at least one assay; those are over-represented in the sample as a whole. Calls of active or inactive are those of the source. No stated cut-off is given here; in the data, active means growth inhibition above about 70%; inactive means the rest.
Outcome codes: active, inactive

>>> df
                                    molecule  labelvalue
 0    O=C1C=CC(=O)N1c1ccc(N2C(=O)C=CC2=O)cc1      active
 1  O=S1(=O)c2ccccc2N=C(c2ccccc2Cl)CC1c1ccc(F)cc1 (configuration not stated)    inactive
 2                      O=NN(CCCl)C(=O)NCCCl    inactive
 3  O=C1c2cccc3cc([N+](=O)[O-])cc(c23)C(=O)N1CCN1CCCC1      active
 4            Cc1cccc(/C=N\NC(=S)N2CCCCC2)n1      active
 5                       O=Cc1coc2ccccc2c1=O    inactive
 6                       NCc1c(O)ccc2ccccc12      active
 7              Cc1c(-c2ccccc2)[nH]c2ccccc12      active
 8  CC(=O)C1(O)Cc2c(O)c3c(c(O)c2C(OC2CC(N)C(O)C(C)O2)C1)C(=O)c1ccccc1C3=O (configuration not stated)      active
 9             CNc1ccc(Cc2c[nH]c3ccccc23)cc1    inactive
10  COc1ccc(N=N/C(=N\NC(=O)c2cc(Br)ccc2O)c2ccc(N(CCC#N)CCC#N)cc2OC)cc1    inactive
11                  O=NN(CCCl)C(=O)NC1CCCCC1    inactive

---

- assayComment: NCI Yeast Anticancer Drug Screen. Data for the rad50EPP+ strain (AID 151);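 further: 0% = growth of vehicle-treated control cultures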
- experimentalSetup: S. cerevisiae rad50 mutant strain, at 100.0 µM, active compounds read high
About 79,000 compounds went through this panel and 15% of them were active in at least one assay; those are over-represented in the sample as a whole. Calls of active or inactive are those of the source. No stated cut-off is given here; in the data, active means growth inhibition above about 70%; inactive means the rest.
Below: a set of entries, each annotated with reported growth inhibition.
outcomeMeasure: growth inhibition

compound	reportedResult
Cc1ccc(S(=O)(=O)N/N=C/C2(c3ccccc3)c3ccccc3-c3ccccc32)cc1	-37% (inactive)
CC(=O)OCC1OC(O[C@H]2C=C[C@@H](C(=O)OCc3ccccc3)n3c(=O)n(-c4ccccc4)c(=O)n32)C(OC(C)=O)C(OC(C)=O)C1OC(C)=O (some centres undefined)	18% (inactive)
c1ccc(N2N=C3N(c4ccccc4)C2N3c2ccccc2)cc1	1% (inactive)
CCC(NC(C)c1ccccc1)C(=O)c1ccc(OCc2ccccc2)c(OCc2ccccc2)c1 (centres undefined)	43% (inactive)
C=Cc1cnc([N+](=O)[O-])n1C	91% (active)
Cc1cc(N=C2C=CC(=[N+](C)C)C=C2)c(N)cc1N	47% (inactive)
O=C1c2ccccc2C(=O)c2cc(S(=O)(=O)Nc3ccccc3)ccc21	47% (inactive)
COc1ccc(N=Nc2ccc3oc(=O)c(C(=O)Nc4ccccc4)cc3c2)cc1	95% (active)
O=C1OC2C(O)COC2(OCc2c[nH]c3ccccc23)C1O (centres undefined) (tested in a mixture with another compound)	15% (inactive)

---

- assayComment: NCI Yeast Anticancer Drug Screen. Data for the wt1 strain (AID 149);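 further: 0% = growth of vehicle-treated wt1 cultures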
- experimentalSetup: S. cerevisiae wt1 strain (SPY 50644) growth inhibition; at 3.7 µM; active compounds read high
This is part of a sample that, as a whole, favours compounds with a hit. Of some 79,000 tested, about 15% had one in any assay.
Items are presented alongside their recorded growth inhibition.
outcomeMeasure: growth inhibition (%)

In [3]: df
Out[3]:
                                    compound  unitstring  reportedresult
 0                  CCCCOC(=O)CSSCC(=O)OCCCC           %              -2
 1                           CCn1ncc(N=O)c1N           %              14
 2                     On1cnc(=S)c2[nH]cnc21           %             -33
 3  O=C(CCc1ccccc1)ON1C(=S)C(c2ccccc2)(c2ccccc2)N=C1Sc1ccccc1           %               6
 4       CC(C)(O)c1ccccc1C(c1ccccc1)c1ccccc1           %              -1
 5              COc1ccc(SCc2cc(OC)ccc2OC)cc1           %              -4
 6           CC(C)c1[nH]nc(C(N)=O)c1N=NN(C)C           %              -4
 7  CCC(c1ccc(O)cc1)C(CC)c1ccc(OCCN)cc1 (configuration not stated)           %              -4
 8  COc1cc(NCc2ccc3nc(N)nc(N)c3c2C)cc(OC)c1OC           %              -4
 9  CC(=O)C1(O)Cc2c(O)c3c(c(O)c2C(OC2CC(N)C(O)C(C)O2)C1)C(=O)c1ccccc1C3=O (configuration not stated)           %              31
10            O=c1[nH]c2ccccc2c2nc3ccccc3n12           %             -44
11  COc1cc2c(cc1C[N+](C)(C)CSc1ccccc1)-c1ccccc1CC2           %             -14

---

- assayComment: NCI Yeast Anticancer Drug Screen. Data for the sgs1 strain (AID 173);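 further: 0% = growth of vehicle-only control cultures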
- experimentalSetup: S. cerevisiae sgs1 mutant, at 3.7 µM, active compounds read high
About 79,000 compounds went through this panel and 15% of them were active in at least one assay; those are over-represented in the sample as a whole.
outcomeMeasure: growth inhibition (%)

                                        mol     outcomemeasure  reportedresult
0                       O=Cc1coc2ccccc2c1=O  growth inhibition              14
1         CC(=O)Oc1ccc(C(=O)c2ccccc2)c(O)c1  growth inhibition              10
2                      NNC(=S)Nc1cccc(Cl)c1  growth inhibition             -22
3  O=C(N/N=C\c1c(Cl)cccc1Cl)N/N=C/c1c(Cl)cccc1Cl  growth inhibition               1
4                    Nc1ccc2c(c1)sc1ccccc12  growth inhibition              -1
5          Clc1nc(C(Cl)Cl)nc2sc3c(c12)CCCC3  growth inhibition               7
6  O=C(Nc1ccc2c(c1)Cc1c-2ccc([N+](=O)[O-])c1F)C(F)(F)F  growth inhibition               3

---

- assayComment: NCI Yeast Anticancer Drug Screen. Data for the rad14 strain (AID 159);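 further: 0% = growth of vehicle-treated control cultures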
- experimentalSetup: S. cerevisiae rad14 strain growth inhibition; at 33.0 µM; active compounds read high
Compounds without any hit were thinned out: in the full panel of roughly 79,000, 15% have a hit.
outcomeMeasure: growth inhibition (%)

In [3]: df
Out[3]:
                                        mol  unitstring  reportedresult
0                    CCCCCC(=O)c1ccc(O)cc1O           %              90
1  Clc1cc(Cc2ccc(N=C/C=C/c3ccccc3)c(Cl)c2)ccc1N=C/C=C\c1ccccc1           %             -19
2  CC(=O)[O-].O=C([CH-]C(=O)c1ccccc1)c1ccccc1.O=C([CH-]C(=O)c1ccccc1)c1ccccc1.[Sm+3]           %              99
3              CCc1[nH]nc(C(N)=O)c1N=NN(C)C           %              13
4  CN(C)Cc1cccc(CN(C)C)[c]1[Sn]([Br])([c]1ccccc1)[c]1ccccc1           %              78

---

- assayComment: NCI Yeast Anticancer Drug Screen. Data for the CLN2oe strain (AID 163);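 further: 0% = growth of vehicle-only control cultures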
- experimentalSetup: S. cerevisiae CLN2oe strain, at 33.0 µM, active compounds read high
Compounds without any hit were thinned out: in the full panel of roughly 79,000, 15% have a hit.
Decide using growth inhibition: a value greater than or equal to 30% is 1.0, a smaller one is 0.0.

>>> df
                                    compound  labelvalue
 0                          CCCCC1=NNC(=O)C1         0.0
 1       Cn1ncc2cc3c(Nc4ccc(Cl)cc4)cccc3nc21         0.0
 2              O=C1CSC(=S)N1Cc1ccc(Cl)cc1Cl         1.0
 3                      NNC(=S)Nc1cccc(Cl)c1         0.0
 4       CC(C)(O)c1ccccc1C(c1ccccc1)c1ccccc1         0.0
 5  O=C1C(Cl)=C(Cl)C(Cl)(Cl)C(Cl)C1(Cl)Cl (configuration not stated)         1.0
 6  O=S1(=O)c2ccccc2N=C(c2ccccc2Cl)CC1c1ccc(F)cc1 (configuration not stated)         0.0
 7          Nc1ccc(CCl)cc1Cc1c(O)ccc2ccccc12         0.0
 8              c1ccc2c(c1)ccc1c3ccncc3ccc21         1.0
 9  CC[C@@]1(OC(=O)CN(C)C)C(=O)OCc2c1cc1n(c2=O)Cc2cc3c(N)cccc3nc2-1         1.0
10       O=C(CNS(=O)(=O)Cc1ccccc1)NNc1ccccc1         1.0
